Experiment: Pharmacokinetics (plasma and brain levels) in ICR (CD-1) mice
Format: in vivo
Conditions: male, ICR (CD-1), mouse, brain, iv, 1 mg/kg, i.v. 1 mg/kg, mouse brain, 0.50 h; read-out: Conc. in brain, individual animal
Answer each item with its documented concentration at 0.5 h.
Report as a plain number; the unit ng/g is understood.

**Q:** Tell us which concentration at 0.5 h value is on record for CC(=O)Nc1ccc(-c2cnc3cc(Cl)ccc3n2)cc1 [CA77.1]
**A:** 677

**Q:** Tell us which concentration at 0.5 h value is on record for CC(=O)Nc1ccc(C2=Nc3ccc(Cl)cc3OC2)cc1 [CA77, reference compound]
**A:** 2200
